Target: γ-secretase complex (Homo sapiens)
Test: APP-C99 counter assay (GSI reporter assay)
Assay type: cell-based
Conditions: 10 µM; sheet conf vs counter 10 µM
Provide the recorded Counter screen (Hek APP-C99) for the entries that follow.
Number only, please.

For O=C(NC(Nc1cccc(C(F)(F)F)c1)C(=O)c1ccccc1)c1ccc(Cl)cc1 (stereo not drawn) , what is its reported Counter screen (Hek APP-C99)?
79.4

Return reported Counter screen (Hek APP-C99); argument: `CC(C)Nc1cncc(OCc2ccc(Cl)c(Cl)c2)n1`
31.8

Fill in: Counter screen (Hek APP-C99) of NC(=O)c1[nH]nc(C2OC(CO)C(O)C2O)c1O (stereo not drawn) is ___
107.3

Given the entry `CCCC(=O)c1ccc(S(=O)(=O)N2CCN(Cc3csc(-c4ccccc4)n3)CC2)cc1` , report its measured Counter screen (Hek APP-C99).
124.1

What Counter screen (Hek APP-C99) value was documented for this compound, `O=C(O)c1c2c(nc3ccccc13)C(=Cc1ccc3c(c1)OCCO3)CC2` ?
16.4

// Counter screen (Hek APP-C99) lookup, key: `FC(F)(F)CCN1CCC2(CC1)NCCc1c2[nH]c2ccc(Cl)cc12`
111.0

What Counter screen (Hek APP-C99) value was documented for this compound, NC(=O)c1c(NC(=S)NC(NC(=O)c2ccccc2)C(Cl)(Cl)Cl)sc2c1CCCC2 (stereo not drawn) ?
72.6

Look up Counter screen (Hek APP-C99): `CCC(C)(C)c1ccc(S(=O)(=O)Nc2ccc3ncsc3c2)cc1`
45.0

Entry COc1ccc(N(CC(O)CN2CCOCC2)S(=O)(=O)c2ccccc2)cc1 (stereo not drawn) : reported Counter screen (Hek APP-C99) = ?
81.1

----------
Biological target: γ-secretase complex (Homo sapiens)
Assay: APP-C99 counter assay (GSI reporter assay)
Type: cell-based
Conditions: 10µM; APP-C99 counter assay
Give measured 3p-DR in % of DMSO counter for each item. Keep answers brief.

Provide value of 3p-DR in % of DMSO counter for this record tested with γ-secretase complex (Homo sapiens): c1ccc2oc(CN3Cc4nc[nH]c4C[C@H]3c3nc(-c4ccc5c(c4)OCO5)no3)cc2c1 [CBK288998]
93.1 % of DMSO

Value wanted: 3p-DR in % of DMSO counter (γ-secretase complex (Homo sapiens)) of entry Nc1ccc(Sc2nccnc2N2CCCC2)cc1 [CBK089520]
34.9 % of DMSO

What 3p-DR in % of DMSO counter appears in the records for this compound with γ-secretase complex (Homo sapiens)? Cc1ccc(NC(=O)c2cnc(SCc3ccc(F)cc3)n(C)c2=O)cc1C [CBK287674]
109.0 % of DMSO

Test system γ-secretase complex (Homo sapiens); read-out 3p-DR in % of DMSO counter; what value for FC(F)(F)CCN1CCC2(CC1)NCCc1c2[nH]c2ccc(Cl)cc12 [CBK039331] ?
111.0 % of DMSO

Hi! What's the reported 3p-DR in % of DMSO counter for NC(=O)c1[nH]nc(C2OC(CO)C(O)C2O)c1O (stereo not drawn) [CBK201236] on γ-secretase complex (Homo sapiens)?
107.3 % of DMSO

γ-secretase complex (Homo sapiens) / 3p-DR in % of DMSO counter / NC(=O)c1c(NC(=S)NC(NC(=O)c2ccccc2)C(Cl)(Cl)Cl)sc2c1CCCC2 (stereo not drawn) [CBK261048] : value?
72.6 % of DMSO

----------
Target: γ-secretase complex (Homo sapiens, UniProt P49768)
Test: APP-C99 counter assay (GSI reporter assay)
Type: cell-based
Settings: 25 µM; sheet "conf vs counter 25 µM"; same values given as % of DMSO in sheet "3p-DR in % of DMSO counter"
Class (by Counter screen (Hek APP-C99)) -- bottom range (below 60), center range (60 to below 80), top range (80 or more)

Input COc1ccc2cc(C(=O)N3CCC(c4ccncc4)CC3)[nH]c2c1 [CBK283799] ; output its category
center range

Which class is correct for the following molecule? C[C@@H]1C(=O)O[C@H]2[C@H]1CC[C@@]1(C)Cc3sc(NC(=O)CCC(=O)O)nc3[C@@H](C)[C@H]21 [CBK289429]
bottom range

Lab note: sort NC(=O)c1c(NC(=S)NC(NC(=O)c2ccccc2)C(Cl)(Cl)Cl)sc2c1CCCC2 (stereo not shown) [CBK261048] into the matching Counter screen (Hek APP-C99) band.
center range

Which Counter screen (Hek APP-C99) category applies to COc1ccc(N(CC(O)CN2CCOCC2)S(=O)(=O)c2ccccc2)cc1 (stereo not shown) [CBK263589] here?
center range

Pick a category. Item: COc1cccc(OCC2CCCN(C(=O)CCc3cnn(C)c3)C2)c1 (stereo not shown) [CBK306931]
bottom range

Each molecule maps to one class by Counter screen (Hek APP-C99). Which class for O=C(Nc1ccc(O)c(-c2nc3ccccc3o2)c1)c1ccc(-c2ccc([N+](=O)[O-])cc2)o1 [CBK263439] ?
top range

Which band does FC(F)(F)CCN1CCC2(CC1)NCCc1c2[nH]c2ccc(Cl)cc12 [CBK039331] fall in?
top range

Looking at c1ccc2c(c1)CCN(c1nc3cc4c(cc3s1)OCCO4)C2 [CBK287498] , which class would you pick?
bottom range

Lab note: which band did CCCC(=O)c1ccc(S(=O)(=O)N2CCN(Cc3csc(-c4ccccc4)n3)CC2)cc1 [CBK063161] land in?
top range

Input COc1ccc(-c2noc([C@@H]3Cc4[nH]cnc4CN3C(=O)CCC(=O)O)n2)cc1 [CBK288967] ; output its category
bottom range

Please let me know in which category the item Fc1cc(CN2CCC3(CC2)OCCc2c3[nH]c3ccc(Br)cc23)cc(F)c1F [CBK039943] belongs.
top range

----------
Tested on: Notch signalling
Assay: Notch reporter assay (12xCSL firefly luciferase / renilla luciferase, HEK293T Notch1ΔE reporter cell line clone #A1-11)
Format: cell-based
Conditions: Homo sapiens, HEK-293T, 14p Notch assay DR; log10 value; bottom constrained to Emax of positive control DAPT; read-out: approximated LogIC50 (converted)
Attribute measured: IC50 (µM)
Report the value in µM with no unit label.

// map COc1cc(Nc2nc(-c3cccc(O)c3)cn3ccnc23)cc(OC)c1OC [CBK066361] to recorded IC50 (system: Notch signalling)
12.6

Please tell me: IC50 of CCn1ncc(CN(C)C(=O)c2cc(-c3cccnc3)nc3ccc(Cl)cc23)c1C [CBK276708] , system Notch signalling?
10

Form entry - test system: Notch signalling; read-out: IC50; molecule: Cc1ccc2[nH]c3c(c2c1)CCOC31CCN(Cc2ccccc2-c2ccccc2)CC1 [compound B]
1.26

I'm curious: which IC50 was measured for COc1cc(Nc2cncc(-c3cccc(NC(C)=O)c3)n2)cc(OC)c1OC [CBK065162] tested on Notch signalling?
25.1

Give recorded IC50 with Notch signalling for the following molecule: CC1CCc2c(sc3ncnc(NCCCN4CCCCCC4=O)c23)C1 (stereo not drawn) [CBK305947]
7.94

Enter reported IC50 observed with Notch signalling for Fc1ccc2[nH]c3c(c2c1)CCOC31CCN(Cc2ccccc2-c2ccccc2)CC1 [CBK039913]
1.26

Entry COc1cc(Nc2nc(-c3cccc(NC(C)=O)c3)cn3ccnc23)cc(OC)c1OC [CBK038093] , system Notch signalling: what IC50 was measured?
5.01

Hi! What's the reported IC50 for Cc1nn(-c2nc3ccccc3s2)c(O)c1C1OC(=O)c2ccccc21 (stereo not drawn) [compound E] on Notch signalling?
0.794

Give IC50 (Notch signalling) of the following molecule: c1ccc(-c2ccccc2CN2CCC3(CC2)OCCc2c3[nH]c3ccccc23)cc1 [CBK040201]
2

Item: COc1ccccc1-c1cn2ccnc2c(Nc2cc(OC)c(OC)c(OC)c2)n1 [CBK066148] Test system: Notch signalling Read-out: IC50 Value: ?
25.1

Notebook entry, Notch signalling assay: IC50 of NC(=O)c1c(NC(=O)NCc2cccnc2)sc2c1CCC2 [compound D] = ?
1.58

Value wanted: IC50 (Notch signalling) of entry COc1cccc(CNc2ccc(N3CCCCC3)cc2)c1OCc1cccs1 [compound C]
1.26

Enter reported IC50 observed with Notch signalling for Cc1ccccc1CN1CCC2(CC1)OCCc1c2[nH]c2ccc(Br)cc12 [CBK040353]
1.58

----------
Target: γ-secretase complex (Homo sapiens, UniProt P49768)
Test: APP-C99 counter assay (GSI reporter assay)
Format: cell-based
Conditions: 24 h; 10µM; APP-C99 counter assay; read-out: 3p-DR in % of DMSO counter
Provide the recorded remaining activity at 10 µM for the entries that follow.
Report the value in % with no unit label.

Param readout= remaining activity at 10 µM; system= γ-secretase complex (Homo sapiens, UniProt P49768); entry= CC1CCc2c(sc3ncnc(NCCCN4CCCCCC4=O)c23)C1 (stereo not drawn) ; returns value.
118

Recorded remaining activity at 10 µM for `COc1cccc(CNc2ccc(N3CCCCC3)cc2)c1OCc1cccs1` with γ-secretase complex (Homo sapiens, UniProt P49768), please?
150

Give the reported remaining activity at 10 µM for `COc1cccc(CNc2ccc(N3CCOCC3)cc2)c1OCc1ccccc1F` (system: γ-secretase complex (Homo sapiens, UniProt P49768)).
153
